- Test system: CCRF-CEM leukemia
- METHOD_DESCRIPTION: NCI tumour cell line growth inhibition, 48 h
TEST_READOUT: TGI

COMPOUND	TEST_READOUT	TEST_VALUE
COC(=O)c1[nH]c(=S)[nH]c(=O)c1-c1ccc(Cl)cc1	TGI	> 50 µM
CCCN1C(=O)/C(=c2\sc3n(c2=O)C2C(NN=3)N(CC)C(=O)N2CC)c2ccccc21 (stereo not given)	TGI	> 100 µM
CC(C)c1ccccc1SC1CC(=O)CC(Sc2ccccc2C(C)C)C12O[C@H](c1ccccc1)[C@@H](c1ccccc1)O2 (stereo not given in full)	TGI	52.9 µM
CSc1nc2ccccc2c(=O)n1/N=C1\C(=O)N(CN2CCCCC2)c2ccc(Cl)cc21	TGI	> 100 µM
O=C(O)C1C(C(=O)O)C2C(=O)C=CC1N2Cc1ccccc1 (stereo not given)	TGI	2.75 µM
